target: CST g1.1 (human, UniProt Q2NKJ3;Q9H668;Q86WV5 1-1217;1-368;1-123, E951K;CTC1:Y949A); experiment: EMSA
Sequence (Q2NKJ3 whole entry E951K, chain 1 of 3): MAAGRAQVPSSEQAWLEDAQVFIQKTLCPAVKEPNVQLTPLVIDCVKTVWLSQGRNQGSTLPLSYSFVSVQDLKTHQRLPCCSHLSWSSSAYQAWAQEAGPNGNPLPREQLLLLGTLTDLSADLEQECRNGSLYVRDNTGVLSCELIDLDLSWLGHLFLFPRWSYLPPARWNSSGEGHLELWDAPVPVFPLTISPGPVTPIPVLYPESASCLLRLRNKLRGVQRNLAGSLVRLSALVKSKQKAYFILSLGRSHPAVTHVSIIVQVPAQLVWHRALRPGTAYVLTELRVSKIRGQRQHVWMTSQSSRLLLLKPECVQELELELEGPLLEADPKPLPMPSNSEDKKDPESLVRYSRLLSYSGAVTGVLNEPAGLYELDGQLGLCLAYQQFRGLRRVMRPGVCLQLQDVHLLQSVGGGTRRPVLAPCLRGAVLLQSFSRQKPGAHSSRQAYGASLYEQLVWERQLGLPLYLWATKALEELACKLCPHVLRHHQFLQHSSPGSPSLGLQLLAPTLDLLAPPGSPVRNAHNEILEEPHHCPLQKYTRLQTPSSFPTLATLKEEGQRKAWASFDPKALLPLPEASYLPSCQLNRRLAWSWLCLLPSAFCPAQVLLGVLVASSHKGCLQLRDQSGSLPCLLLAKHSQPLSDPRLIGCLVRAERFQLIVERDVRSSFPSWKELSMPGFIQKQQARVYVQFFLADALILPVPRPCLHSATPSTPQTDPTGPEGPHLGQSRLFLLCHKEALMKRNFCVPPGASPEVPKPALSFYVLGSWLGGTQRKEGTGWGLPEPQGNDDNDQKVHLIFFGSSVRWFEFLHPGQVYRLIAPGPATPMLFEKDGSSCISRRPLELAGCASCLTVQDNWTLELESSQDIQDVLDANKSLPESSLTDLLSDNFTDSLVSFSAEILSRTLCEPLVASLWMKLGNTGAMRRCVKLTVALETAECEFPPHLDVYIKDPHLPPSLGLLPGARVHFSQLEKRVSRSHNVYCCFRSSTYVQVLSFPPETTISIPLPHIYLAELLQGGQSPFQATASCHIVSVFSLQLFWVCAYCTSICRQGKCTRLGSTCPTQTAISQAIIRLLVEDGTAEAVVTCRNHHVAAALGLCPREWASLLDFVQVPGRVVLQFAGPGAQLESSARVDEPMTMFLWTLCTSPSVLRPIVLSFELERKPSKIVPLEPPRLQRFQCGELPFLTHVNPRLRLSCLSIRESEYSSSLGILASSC
Sequence (Q9H668 whole entry, stated change not applied, chain 2 of 3): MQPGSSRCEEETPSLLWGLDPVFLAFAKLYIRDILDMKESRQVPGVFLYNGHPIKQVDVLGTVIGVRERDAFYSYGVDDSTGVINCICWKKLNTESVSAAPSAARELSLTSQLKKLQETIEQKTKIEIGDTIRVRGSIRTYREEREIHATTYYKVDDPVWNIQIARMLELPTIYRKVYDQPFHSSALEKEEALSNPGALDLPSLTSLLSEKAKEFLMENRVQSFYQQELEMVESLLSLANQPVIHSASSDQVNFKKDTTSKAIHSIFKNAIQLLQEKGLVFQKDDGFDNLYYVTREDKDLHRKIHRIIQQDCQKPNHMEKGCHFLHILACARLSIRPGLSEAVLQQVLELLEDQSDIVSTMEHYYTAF
Sequence (Q86WV5 whole entry, stated change not applied, chain 3 of 3): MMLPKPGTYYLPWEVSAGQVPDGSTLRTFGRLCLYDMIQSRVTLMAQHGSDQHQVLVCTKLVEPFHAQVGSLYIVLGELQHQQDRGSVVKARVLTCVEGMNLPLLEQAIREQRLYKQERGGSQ
property measured: Kd (nM)
Please reply with the bare figure in nM and do not write the unit itself.

Q. Give reported Kd value for TTAGGGTTAGGGTTAGGG (ssDNA) [3xTEL (EMSA)]
A. 133
